test_method_notes: Plasma pharmacokinetics after i.v. and oral administration in male and female mice
Type: in vivo, FVB mice
measurement_context: both sexes, FVB, mouse, plasma, intravenous, 2 mg/kg; mice; read-out: volume of distribution
endpoint_label: Vd

INSERT INTO results (chemical_structure, endpoint_label, val) VALUES
  ('Nc1cc(C(F)(F)F)c(-c2cc(N3CCOCC3)nc(N3CCOCC3)n2)cn1', 'Vd', '< 1 L/kg');

Sourced from paper PMC6050274
